The reported measurements were obtained from paper PMC10237670.

- test.system: BLMcore G1120R (Homo sapiens, UniProt P54132 636-1298, G1120R)
- Sequence (P54132 636-1298 G1120R): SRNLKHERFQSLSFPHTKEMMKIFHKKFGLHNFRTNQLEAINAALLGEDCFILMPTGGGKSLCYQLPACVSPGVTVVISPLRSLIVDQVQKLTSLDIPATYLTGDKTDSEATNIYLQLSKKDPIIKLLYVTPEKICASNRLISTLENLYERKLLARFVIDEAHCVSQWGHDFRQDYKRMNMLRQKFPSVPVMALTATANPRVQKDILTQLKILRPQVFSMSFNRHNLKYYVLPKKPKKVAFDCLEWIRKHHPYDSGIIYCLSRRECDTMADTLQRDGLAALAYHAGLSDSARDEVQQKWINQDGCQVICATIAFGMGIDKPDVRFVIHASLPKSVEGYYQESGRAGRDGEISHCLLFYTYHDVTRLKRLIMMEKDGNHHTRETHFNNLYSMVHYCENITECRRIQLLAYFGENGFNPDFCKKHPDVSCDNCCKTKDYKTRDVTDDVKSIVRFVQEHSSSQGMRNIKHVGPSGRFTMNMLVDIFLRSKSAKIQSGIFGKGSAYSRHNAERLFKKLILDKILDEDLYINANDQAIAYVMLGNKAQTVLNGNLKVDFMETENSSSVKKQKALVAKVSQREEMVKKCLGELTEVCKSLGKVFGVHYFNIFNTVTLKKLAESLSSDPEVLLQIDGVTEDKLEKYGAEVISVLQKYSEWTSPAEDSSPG
- assay.procedure: EMSA; 5 mM MgCl2; smear; estimated apparent KD; 50 mM Tris-HCl pH 7.5, 50 mM KCl, 5 mM MgCl2, 1 mM DTT, 0.1 mg/mL BSA, 40 nM DNA, 30 min room temperature; 5% gel in TBE + 100 mM KCl at 4 C
- reported.conditions: protein: recombinant; (HisTrap purified); single strand
assay.metric: Kd

- TTTTTTTTTTTTTTTTTTTTTTTTTTTTTT (ssDNA) [FAM-dT30 (ssDNA)]: ~62.5 nM
